Where do the numbers come from? From patent US20060156431A1.

- SYSTEM TESTED: GDP-Man 3″,5″-epimerase of A. thaliana (Arabidopsis thaliana)
- Construct: The hydroxylapatite fraction of native epimerase (11) was used; endogenous in cells; enzyme purified, hydroxylapatite fraction
- Sequence (Q93VR3 1-377): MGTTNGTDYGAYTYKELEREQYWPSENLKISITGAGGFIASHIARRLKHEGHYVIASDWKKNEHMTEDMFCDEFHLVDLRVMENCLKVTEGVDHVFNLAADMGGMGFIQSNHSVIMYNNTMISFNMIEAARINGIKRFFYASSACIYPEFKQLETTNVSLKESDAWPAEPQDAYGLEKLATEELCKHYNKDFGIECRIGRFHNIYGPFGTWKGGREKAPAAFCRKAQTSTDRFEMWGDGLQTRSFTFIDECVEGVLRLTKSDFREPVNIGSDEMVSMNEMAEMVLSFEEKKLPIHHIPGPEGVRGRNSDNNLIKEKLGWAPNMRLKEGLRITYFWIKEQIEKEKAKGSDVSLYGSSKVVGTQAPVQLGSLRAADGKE
- TEST DESCRIPTION: GDP-Man 3″,5″-epimerase assay (HPLC)
METRIC NAME: pKi
Worth noting: pKi values are minus log10 of concentrations stated in mol/L.

Using the record for Nc1nc2c(ncn2[C@@H]2O[C@H](COP(=O)(O)OP(=O)(O)O)[C@@H](O)[C@H]2O)c(=O)[nH]1 [GDP] , report its pKi.
6.15
